Target: T1, Nipah virus attachment (receptor-binding) glycoprotein (GP), wild type (Nipah virus; strain of the assayed …, UniProt Q9IH62)
T1 construct: source: HEK 293-F FreeStyle, transiently transfected, purified from supernatant (Ni-NTA)
Assay: ELISA
Conditions: both partners purified
reported-property: pKd
# log scale: pKd equals minus log10 of the concentration in mol/L

Reported pKd ( m102.4 VH Q104A (antibody, V domains shown) VH: EVQVIQSGADVKKPGSSVKVSCKSSGGTFSKYAINWVRQAPGQGLEWMGGIIPILGIANYAQKFQGRVTITTDESTSTAYMELSSLRSEDTAVYYCARGWGREALAPHPSQYYYYYYGMDVWGQGTTVTVSS VL: EIVMTQSPGTLSLAPGERATLSCWASQSVRNNYLAWYQQKPGQAPRLVIYNGSTRATGIPDRFSGSGSGTDFTLTISRLDPEDFAVYYCQQYGNSRRVTFGGGTKVEIK ) = 10.00

// sample m102.4 VH I57A (antibody, V domains shown) VH: EVQVIQSGADVKKPGSSVKVSCKSSGGTFSKYAINWVRQAPGQGLEWMGGIIPILGAANYAQKFQGRVTITTDESTSTAYMELSSLRSEDTAVYYCARGWGREQLAPHPSQYYYYYYGMDVWGQGTTVTVSS VL: EIVMTQSPGTLSLAPGERATLSCWASQSVRNNYLAWYQQKPGQAPRLVIYNGSTRATGIPDRFSGSGSGTDFTLTISRLDPEDFAVYYCQQYGNSRRVTFGGGTKVEIK , its pKd was 10.00

The value of pKd measured for the binder m102.4 VH L105A (antibody, V domains shown) VH: EVQVIQSGADVKKPGSSVKVSCKSSGGTFSKYAINWVRQAPGQGLEWMGGIIPILGIANYAQKFQGRVTITTDESTSTAYMELSSLRSEDTAVYYCARGWGREQAAPHPSQYYYYYYGMDVWGQGTTVTVSS VL: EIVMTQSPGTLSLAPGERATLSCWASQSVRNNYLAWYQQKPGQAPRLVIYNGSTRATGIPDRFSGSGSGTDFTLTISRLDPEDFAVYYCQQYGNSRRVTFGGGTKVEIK turned out to be 10.00
